Assay: Solubility of Givinostat (ITF2357) in water, buffers and aqueous vehicles
Format: physicochemical
Details: suspension vehicle, pH 5.5, aqueous with cosolvent or surfactant or cyclodextrin, thermodynamic from solid, Tartrate buffer pH = 5.5, Tween 20, Sorbitol 40% w/v; read-out: ITF2357 solubility

# COMPOUND, solubility
data = [
    ("CCN(CC)Cc1ccc2cc(COC(=O)Nc3ccc(C(=O)NO)cc3)ccc2c1 [ITF2357, Givinostat]", "160 µg/mL"),
]

====

Experiment: Solubility of Givinostat (ITF2357) in water, buffers and aqueous vehicles
Format: physicochemical
Conditions: purified water, water, purified water; read-out: solubility
OBSERVABLE: solubility

# MOLECULE, RESULT
data = [
    ("CCN(CC)Cc1ccc2cc(COC(=O)Nc3ccc(C(=O)NO)cc3)ccc2c1", "~2500 µg/mL"),
]

====

Experiment: Solubility of Givinostat (ITF2357) in water, buffers and aqueous vehicles
Format: physicochemical
Details: phosphate buffer, pH 2, aqueous buffer, phosphate buffer pH 2
OBSERVABLE: solubility

# MOLECULE, OBSERVABLE, RESULT
measured = [
    ("CCN(CC)Cc1ccc2cc(COC(=O)Nc3ccc(C(=O)NO)cc3)ccc2c1", "solubility", "~1130 µg/mL"),
]

====

Experiment: Solubility of Givinostat (ITF2357) in water, buffers and aqueous vehicles
Format: physicochemical
Conditions: aqueous vehicle, 25 °C, pH 6, aqueous with cosolvent or surfactant or cyclodextrin, thermodynamic from solid, Phosphate buffer pH 6, Tween 20, Sucrose 40% (w/v), 25° C.; read-out: ITF2357 Solubility
OBSERVABLE: solubility

# MOLECULE, OBSERVABLE, RESULT
records = [
    ("CCN(CC)Cc1ccc2cc(COC(=O)Nc3ccc(C(=O)NO)cc3)ccc2c1", "solubility", "3880 µg/mL"),
]

====

Experiment: Solubility of Givinostat (ITF2357) in water, buffers and aqueous vehicles
Type: physicochemical
Conditions: acetate buffer, pH 4.5, aqueous buffer, thermodynamic from solid, Acetate buffer pH 4.5; read-out: ITF2357 solubility
OBSERVABLE: solubility (µg/mL)

# MOLECULE, NUMERIC_VALUE
measured = [
    ("CCN(CC)Cc1ccc2cc(COC(=O)Nc3ccc(C(=O)NO)cc3)ccc2c1", 5100),
]

====

Assay: Solubility of Givinostat (ITF2357) in water, buffers and aqueous vehicles
Format: physicochemical
Settings: suspension vehicle, pH 7, aqueous with cosolvent or surfactant or cyclodextrin, thermodynamic from solid, Tartrate buffer pH = 7.0, Tween 20, Sorbitol 40% w/v; read-out: ITF2357 solubility

# MOLECULE, solubility
records = [
    ("CCN(CC)Cc1ccc2cc(COC(=O)Nc3ccc(C(=O)NO)cc3)ccc2c1", "150 µg/mL"),
]

====

Experiment: Solubility of Givinostat (ITF2357) in water, buffers and aqueous vehicles
Assay type: physicochemical
Settings: suspension vehicle, pH 6, aqueous with cosolvent or surfactant or cyclodextrin, thermodynamic from solid, Tartrate buffer pH = 6.0, Tween 20, Sorbitol 40% w/v; read-out: ITF2357 solubility

# MOLECULE, solubility (µg/mL)
records = [
    ("CCN(CC)Cc1ccc2cc(COC(=O)Nc3ccc(C(=O)NO)cc3)ccc2c1 [ITF2357, Givinostat]", 150),
]

====

Test: Solubility of Givinostat (ITF2357) in water, buffers and aqueous vehicles
Type: physicochemical
Conditions: aqueous vehicle, 25 °C, pH 6, aqueous with cosolvent or surfactant or cyclodextrin, thermodynamic from solid, Phosphate buffer pH 6, Tween 20, Sorbitol 10% (w/v), 25° C.; read-out: ITF2357 Solubility

# COMPOUND, solubility (mg/mL)
rows = [
    ("CCN(CC)Cc1ccc2cc(COC(=O)Nc3ccc(C(=O)NO)cc3)ccc2c1 [ITF2357, Givinostat]", 2.34),
]

====

Experiment: Solubility of Givinostat (ITF2357) in water, buffers and aqueous vehicles
Format: physicochemical
Details: suspension vehicle, pH 5, aqueous with cosolvent or surfactant or cyclodextrin, thermodynamic from solid, Tartrate buffer pH = 5.0, Tween 20, Sorbitol 40% w/v; read-out: ITF2357 solubility
OBSERVABLE: solubility

# COMPOUND, RESULT
data = [
    ("CCN(CC)Cc1ccc2cc(COC(=O)Nc3ccc(C(=O)NO)cc3)ccc2c1 [ITF2357, Givinostat]", "150 µg/mL"),
]

====

Assay: Solubility of Givinostat (ITF2357) in water, buffers and aqueous vehicles
Assay type: physicochemical
Details: suspension vehicle, pH 4, aqueous with cosolvent or surfactant or cyclodextrin, thermodynamic from solid, Tartrate buffer pH = 4.0, Tween 20, Sorbitol 40% w/v; read-out: ITF2357 solubility

# MOLECULE, solubility / µg/mL
records = [
    ("CCN(CC)Cc1ccc2cc(COC(=O)Nc3ccc(C(=O)NO)cc3)ccc2c1", 210),
]

====

Assay: Solubility of Givinostat (ITF2357) in water, buffers and aqueous vehicles
Assay type: physicochemical
Settings: aqueous vehicle, 25 °C, pH 6, aqueous with cosolvent or surfactant or cyclodextrin, thermodynamic from solid, Phosphate buffer pH 6, Tween 20, Sorbitol 40% (w/v), 25° C.; read-out: ITF2357 Solubility
Procedure: Solubility of Givinostat was tested in aqueous vehicles at pH 6, containing Phosphate buffer. Tween 20 as wetting agent and either Sorbitol or Sucrose (40% w/v). […] The saturated solution was then separated from the excess solid by filtration and Givinostat (ITF2357) was quantitated in the filtrate by UV-Vis spectrophotometric technique. In table 4 solubility value determined on ITF 2357 saturated solution in different buffer at pH 4.5 are reported. […]

# MOLECULE, solubility [µg/mL]
measured = [
    ("CCN(CC)Cc1ccc2cc(COC(=O)Nc3ccc(C(=O)NO)cc3)ccc2c1", 1930),
]

====

Experiment: Solubility of Givinostat (ITF2357) in water, buffers and aqueous vehicles
Format: physicochemical
Conditions: phosphate buffer, pH 8, aqueous buffer, phosphate buffer pH 8; read-out: solubility
Protocol: Solubility of Givinostat was tested in aqueous vehicles at pH 6, containing Phosphate buffer. Tween 20 as wetting agent and either Sorbitol or Sucrose (40% w/v). […] The saturated solution was then separated from the excess solid by filtration and Givinostat (ITF2357) was quantitated in the filtrate by UV-Vis spectrophotometric technique. In table 4 solubility value determined on ITF 2357 saturated solution in different buffer at pH 4.5 are reported. […]

# COMPOUND, solubility
data = [
    ("CCN(CC)Cc1ccc2cc(COC(=O)Nc3ccc(C(=O)NO)cc3)ccc2c1 [ITF2357, Givinostat]", "~50 µg/mL"),
]

====

Experiment: Solubility of Givinostat (ITF2357) in water, buffers and aqueous vehicles
Format: physicochemical
Conditions: tartrate buffer, pH 4.5, aqueous buffer, thermodynamic from solid, Tartrate buffer pH 4.5; read-out: ITF2357 solubility
OBSERVABLE: solubility (µg/mL)

# MOLECULE, OBSERVABLE, NUMERIC_VALUE
rows = [
    ("CCN(CC)Cc1ccc2cc(COC(=O)Nc3ccc(C(=O)NO)cc3)ccc2c1", "solubility", 230),
]

====

Assay: Solubility of Givinostat (ITF2357) in water, buffers and aqueous vehicles
Format: physicochemical
Details: aqueous vehicle, 25 °C, pH 6, aqueous with cosolvent or surfactant or cyclodextrin, thermodynamic from solid, Phosphate buffer pH 6, Tween 20, Sorbitol 30% (w/v), 25° C.; read-out: ITF2357 Solubility
Description: Solubility of Givinostat was tested in aqueous vehicles at pH 6, containing Phosphate buffer. Tween 20 as wetting agent and either Sorbitol or Sucrose (40% w/v). […] The saturated solution was then separated from the excess solid by filtration and Givinostat (ITF2357) was quantitated in the filtrate by UV-Vis spectrophotometric technique. In table 4 solubility value determined on ITF 2357 saturated solution in different buffer at pH 4.5 are reported. […]

# MOLECULE, UNIT_ABBREV, solubility
measured = [
    ("CCN(CC)Cc1ccc2cc(COC(=O)Nc3ccc(C(=O)NO)cc3)ccc2c1", "µg/mL", 2020),
]

====

Assay: Solubility of Givinostat (ITF2357) in water, buffers and aqueous vehicles
Format: physicochemical
Conditions: aqueous vehicle, 25 °C, pH 6, aqueous with cosolvent or surfactant or cyclodextrin, thermodynamic from solid, Phosphate buffer pH 6, Tween 20, Sorbitol 20% (w/v), 25° C.; read-out: ITF2357 Solubility
OBSERVABLE: solubility (µg/mL)

# COMPOUND, UNIT_ABBREV, NUMERIC_VALUE
rows = [
    ("CCN(CC)Cc1ccc2cc(COC(=O)Nc3ccc(C(=O)NO)cc3)ccc2c1 [ITF2357, Givinostat]", "µg/mL", 2110),
]

Taken from patent US10688047B2.
